What CC50 was measured for each of the following?
System: HCT116 MTAP-deleted cells
assay name: Cell viability assay (CellTiter-Glo, 7 days), HCT116 MTAP-deleted
condition parameters: Homo sapiens, HCT-116, 168 h

stdin: Provide value of CC50 for this record tested with HCT116 MTAP-deleted cells: CN(C(=O)C12CC(C1)C2)N(Cc1ccc2ncsc2c1)C(=O)c1ccc2nc(N)c3cnn(C)c3c2c1
stdout: < 100 nM

stdin: Under HCT116 MTAP-deleted cells: CC50 value of CC(=O)N(C)N(Cc1ccc(-c2ccc(C(F)(F)F)s2)cc1F)C(=O)c1ccc2nc(N)c3cnn(C)c3c2c1 ?
stdout: < 100 nM

stdin: Param readout= CC50; system= HCT116 MTAP-deleted cells; entry= CN(C(=O)C1CC1)N(Cc1nc2cc(Cl)ccc2o1)C(=O)c1ccc2nc(N)c3cnn(C)c3c2c1 ; returns value.
stdout: < 100 nM

stdin: What value of CC50 on HCT116 MTAP-deleted cells does CN(C(=O)N1CC(F)(F)C1)N(Cc1ccc(C(F)(F)F)cn1)C(=O)c1ccc2nc(N)c3cnn(C)c3c2c1 have?
stdout: < 100 nM
